Each item that follows carries a reported IC50, flow cytometry based human T cell mediated Ramos killing assay, E:T 10:1.
# TARGET_DESC: T1, human CD20 on cells (human, UniProt P11836 1-297)
# T1 sequence (looked up): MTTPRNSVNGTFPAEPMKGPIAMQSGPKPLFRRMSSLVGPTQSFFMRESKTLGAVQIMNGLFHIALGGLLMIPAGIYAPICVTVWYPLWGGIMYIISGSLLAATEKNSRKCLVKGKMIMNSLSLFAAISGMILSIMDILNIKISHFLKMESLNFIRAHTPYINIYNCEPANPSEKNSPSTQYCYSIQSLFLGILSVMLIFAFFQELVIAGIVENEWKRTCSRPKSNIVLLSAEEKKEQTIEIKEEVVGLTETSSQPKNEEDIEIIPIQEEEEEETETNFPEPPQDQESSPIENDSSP
# MEASUREMENT_DESCRIPTION: cell-based or functional assay
# unit: nM | format: bare number

Ask: State the recorded IC50, flow cytometry based human T cell mediated Ramos killing assay, E:T 10:1 for this entry: T017000074 (bispecific antibody, TCR x CD20 bispecific Nanobody construct (cluster A); entry includes the FLAG3-HIS6 tag; also called T0170056G05-35GS-20CD019C07-FLAG3-HIS6) EVQLVESGGGLVQPGGSLRLSCVASGDVHKINFLGWYRQAPGKEREKVAHISIGDQTDYADSAKGRFTISRDESKNMVYLQMNSLKPEDTAVYFCRAFSRIYPYDYWGQGTLVTVSSGGGGSGGGGSGGGGSGGGGSGGGGSGGGGSGGGGSEVQLVESGGGLVQPGGSLRLSCTFSGGTFSSYTMGWFRQAPGKEREFVAEVRWGGVTTYSNSLKDRFSISEDSVKNAVYLQMNSLKPEDTAVYYCAAVRQMYMTVVPDYWGQGTLVTVSSGAADYKDHDGDYKDHDIDYKDDDDKGAAHHHHHH
Result: 0.92

Ask: State the recorded IC50, flow cytometry based human T cell mediated Ramos killing assay, E:T 10:1 for this entry: T017000055 (bispecific antibody, entry includes the FLAG3-HIS6 tag; also called 20CD019C07-35GS-T0170055A02-FLAG3-HIS6) EVQLVESGGGLVQPGGSLRLSCTFSGGTFSSYTMGWFRQAPGKEREFVAEVRWGGVTTYSNSLKDRFSISEDSVKNAVYLQMNSLKPEDTAVYYCAAVRQMYMTVVPDYWGQGTLVTVSSGGGGSGGGGSGGGGSGGGGSGGGGSGGGGSGGGGSEVQLVESGGGLVQPGGSLRLSCAASGDVHKINILGWYRQAPAKEREMVAHITIGDATDYADSAKGRFTISRDEAKNMVYLQMNSLKPEDTAVYFCRAYSRIYPYNYWGQGTLVTVSSGAADYKDHDGDYKDHDIDYKDDDDKGAAHHHHHH
Result: 0.53
